// reported neutralization IC50 for each item listed
molecular target: HIV-1 Env of DU422.01 (HIV-1); assay: cell-based or functional assay
Numbers only here, please. The scale is µg/mL.

Known neutralization IC50 results, listed for orientation:
CAP256-VRC26.03 (antibody, V domains shown) VH: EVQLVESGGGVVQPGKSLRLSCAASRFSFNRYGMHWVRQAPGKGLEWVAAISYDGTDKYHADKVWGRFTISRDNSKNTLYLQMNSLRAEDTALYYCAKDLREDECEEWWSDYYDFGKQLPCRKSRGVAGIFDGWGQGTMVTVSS VL: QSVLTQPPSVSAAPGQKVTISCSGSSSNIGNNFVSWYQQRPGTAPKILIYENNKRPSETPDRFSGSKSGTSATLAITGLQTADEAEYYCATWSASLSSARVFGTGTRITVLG
0.134
CAP256-VRC26.11 (antibody, V domains shown) VH: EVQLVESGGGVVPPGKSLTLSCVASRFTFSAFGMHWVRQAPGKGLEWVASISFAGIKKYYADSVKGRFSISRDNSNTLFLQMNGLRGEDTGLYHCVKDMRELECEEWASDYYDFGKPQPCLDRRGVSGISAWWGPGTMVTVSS VL: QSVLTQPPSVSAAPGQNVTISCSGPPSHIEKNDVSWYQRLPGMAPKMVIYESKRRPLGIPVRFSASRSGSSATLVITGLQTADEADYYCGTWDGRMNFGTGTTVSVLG
11.5

Lab note: next binder to report on.
*Q* Returns the measured neutralization IC50 for the input binder. Input: CAP256-VRC26.10 (antibody, V domains shown) VH: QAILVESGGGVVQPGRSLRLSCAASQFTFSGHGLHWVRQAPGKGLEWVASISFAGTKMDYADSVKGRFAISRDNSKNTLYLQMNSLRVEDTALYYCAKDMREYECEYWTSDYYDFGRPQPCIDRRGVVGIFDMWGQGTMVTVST VL: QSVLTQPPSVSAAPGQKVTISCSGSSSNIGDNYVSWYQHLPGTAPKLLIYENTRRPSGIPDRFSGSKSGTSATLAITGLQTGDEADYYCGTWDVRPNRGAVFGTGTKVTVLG
*A* 8.2

Entry source: patent US20200199204A1
